System: OCI-Ly10
protocol details: 5-day viable cell number and apoptosis (7-AAD exclusion/Annexin V flow cytometry)
Type: cell-based
condition context: Homo sapiens; OCI-Ly10 cells (Table 3); read-out: IC50
Protocol: The DLBCL panel includes seven cell lines classified as activated B-cell (ABC) subtype, thirteen cell lines classified as the germinal center B-cell (GCB) subtype, and three cell lines classified as primary mediastinal B-cell lymphoma (PMBL). […] Expressions of CRBN protein and known substrates, Ikaros, Aiolos, and ZFP91 were also evaluated (FIG. 1, panels B and C). […]
value kind: pIC50
One number for each entry, as −log10 of the molar value.

Look over these answered cases.
O=C1CC[C@H](N2C(=O)c3cccc(NCc4ccc(CN5CC(N6CCOCC6)C5)cc4F)c3C2=O)C(=O)N1 [Compound 1]    3.57
CC1(C)CCC(CN2CCN(c3ccc(C(=O)NS(=O)(=O)c4ccc(NCC5CCOCC5)c([N+](=O)[O-])c4)c(Oc4cnc5[nH]ccc5c4)c3)CC2)=C(c2ccc(Cl)cc2)C1 [Venetoclax, reference compound]    3.70

Let us examine a further case.
Task item: Sample COc1cccc2c1C(=O)c1c(O)c3c(c(O)c1C2=O)C[C@@](O)(C(=O)CO)C[C@@H]3O[C@H]1C[C@H](N)[C@H](O)[C@H](C)O1 [Doxorubicin, reference compound] — what was its pIC50?
Reply: 5.52
